Reported Emax is given for each of the following molecules.
tested on: primary human T-cells; assay: Proliferation assay after 5 days (CellTiter-Glo, CD3 stimulation; PBS counter screen); assay type: cell-based; conditions: Homo sapiens, T-cell, 120 h, CD3 stimulation, 5 days; normalized to reference compound A1 as stimulator control = 100%, DMSO neutral control; read-out: Emax proliferation (% activation)
Give a bare numeral; the unit % is implied.

Recorded Emax, per entry:
1) CC(C#N)c1nnc(-c2cc3c(cc2F)S(=O)(=O)C[C@H](N)C(=O)N3Cc2ccc(Cl)cc2)o1 (some centres unmarked) : 102
2) Cc1nc(F)ccc1-c1nnc(-c2cc3c(cc2F)S(=O)(=O)C[C@H](N)C(=O)N3Cc2ccc(Cl)cc2)o1 : 192
3) C[C@@H](COC(F)(F)F)Nc1nnc(-c2cc3c(cc2F)S(=O)(=O)C[C@H](N)C(=O)N3Cc2ccc(Cl)cc2)o1 : 135

Per the record, N[C@H]1CS(=O)(=O)c2cc(F)c(-c3nnc(C4CCCCC4(F)F)o3)cc2N(Cc2ccc(Cl)cc2)C1=O (some centres unmarked) has Emax of 180

Per the record, COC(F)(c1nnc(-c2ccc3c(c2)N(Cc2ccc(Cl)cc2)C(=O)[C@@H](N)CS3(=O)=O)o1)C(F)(F)F (some centres unmarked) has Emax of 129

Per the record, NC(c1nnc(-c2cc3c(cc2F)S(=O)(=O)C[C@H](N)C(=O)N3Cc2ccc(Cl)cc2)o1)C(F)(F)F (some centres unmarked) has Emax of 92

Per the record, CC(C)(C)c1cnn(-c2cc3c(cc2F)S(=O)(=O)C[C@H](N)C(=O)N3Cc2ccc(Cl)cc2)c1 has Emax of 96

Per the record, CN(C)CCCC(C)(C)c1nnc(-c2cc3c(cc2F)S(=O)(=O)C[C@H](N)C(=O)N3Cc2ccc(Cl)cc2)o1 has Emax of 77

Per the record, Cc1cc2c(cc1-c1nnc(C(C)(C)C#N)o1)N(Cc1ccc(Cl)cc1)C(=O)[C@@H](N)CS2(=O)=O has Emax of 96

Per the record, CN1CCCC(c2nnc(-c3cc4c(cc3F)S(=O)(=O)C[C@H](N)C(=O)N4Cc3ccc(Cl)cc3)o2)C1 (some centres unmarked) has Emax of 86

Per the record, CC(=O)N1CCC2CC2(c2nnc(-c3cc4c(cc3F)S(=O)(=O)C[C@H](N)C(=O)N4Cc3ccc(Cl)cc3)o2)C1 (some centres unmarked) has Emax of 103

Per the record, COC(=O)N1CC2CC(c3nc(-c4cc5c(cc4F)[S+]([O-])C[C@H](N)C(=O)N5Cc4ccc(OC(F)(F)C(F)F)cc4)no3)(C2)C1 (some centres unmarked) has Emax of 104

Per the record, CS(=O)(=O)N1CCC(n2nnc(-c3cc4c(cc3F)S(=O)(=O)C[C@H](N)C(=O)N4Cc3ccc(Cl)cc3)n2)CC1 has Emax of 239

Per the record, COC(F)(c1nc(-c2cc3c(cc2F)S(=O)(=O)C[C@H](N)C(=O)N3Cc2ccc(Cl)cc2)no1)C(F)(F)F (some centres unmarked) has Emax of 179

###

Reported Emax is given for each of the following molecules.
tested on: primary human T-cells; assay: Proliferation assay after 5 days (CellTiter-Glo, CD3 stimulation; PBS counter screen); assay type: cell-based; details: Homo sapiens, T-cell, 120 h, CD3 stimulation, 5 days; normalized to reference compound A1 as stimulator control = 100%, DMSO neutral control; read-out: Emax proliferation (% activation)
Give a bare numeral; the unit % is implied.

Recorded Emax, per entry:
1) CC(C)(C)n1nc(-c2cc3c(cc2F)S(=O)(=O)C[C@H](N)C(=O)N3Cc2ccc(Cl)cc2)oc1=O [Example 510] : 129
2) CC(N)(c1nc(-c2cc3c(cc2F)S(=O)(=O)C[C@H](N)C(=O)N3Cc2ccc(OC(F)(F)F)cc2)no1)C(F)(F)F (some centres unmarked) [Example 331] : 126
3) COC1(c2nnc(-c3ccc4c(c3)N(Cc3ccc(Cl)cc3)C(=O)[C@@H](N)CS4(=O)=O)o2)CCOCC1 [Example 371] : 84
4) N[C@H]1CS(=O)(=O)c2ccc(-c3nnc(N4CC5(CCC5)C4)o3)cc2N(Cc2ccc(Cl)cc2)C1=O [Example 398] : 115
5) CN1CC[C@@H](n2nnc(-c3cc4c(cc3F)S(=O)(=O)C[C@H](N)C(=O)N4Cc3ccc(Cl)cc3)n2)C1 [Example 10] : 78
6) N[C@H]1CS(=O)(=O)c2cc(F)c(-c3noc(N4CCOC(F)(F)C4)n3)cc2N(Cc2ccc(Cl)cc2)C1=O [Example 204] : 154
7) CCc1nnn(-c2cc3c(cc2F)S(=O)(=O)C[C@H](N)C(=O)N3Cc2ccc(Cl)cc2)n1 [Example 509] : 122
8) CC(C)(C)c1nnc(-c2cc3c(cc2F)S(=O)(=O)C[C@H](N)C(=O)N3Cc2cnn(CC3CC3)c2)o1 [Example 255] : 78
9) N[C@H]1CS(=O)(=O)c2cc(F)c(-c3nnc(NC45CC(F)(C4)C5)o3)cc2N(Cc2ccc(Cl)cc2)C1=O [Example 499] : 68
10) N[C@H]1CS(=O)(=O)c2ccc(-c3nnc(NC4CCCC(F)(F)C4)o3)cc2N(Cc2ccc(Cl)cc2)C1=O (some centres unmarked) [Example 401] : 69

Per the record, CN(C)C(=O)c1nnc(-c2cc3c(cc2F)S(=O)(=O)C[C@H](N)C(=O)N3Cc2ccc(Cl)cc2)o1 [Example 87] has Emax of 82

Per the record, CC(C)(C)c1nnc(-c2cc3c(cc2F)S(=O)(=O)C[C@H](N)C(=O)N3Cc2ccc(Cl)c(F)c2)o1 [Example 245] has Emax of 127

Per the record, CC(C)(O)Cn1nnc(-c2cc3c(cc2F)S(=O)(=O)C[C@H](N)C(=O)N3Cc2ccc(Cl)cc2)n1 [Example 27] has Emax of 103

Per the record, N[C@H]1CS(=O)(=O)c2ccc(-c3nnc(N4CC5(CCCOC5)C4)o3)cc2N(Cc2ccc(Cl)cc2)C1=O [Example 405] has Emax of 86

###

test system: primary human T-cells
Reported EC50 is given for each of the following compounds.
Give a bare numeral; the unit nM is implied.

Here CC[C@H](NC)C(=O)N[C@H]1CS(=O)(=O)c2cc(F)c(-c3nnc(C(C)(C)C)o3)cc2N(Cc2ccc(Cl)cc2)C1=O [Example 270] was tested on primary human T-cells, and its EC50 came to 57.4

Here CN=S1(=O)C[C@H](N)C(=O)N(Cc2ccc(OC(F)(F)F)cc2)c2cc(-c3nnc(C(C)(C)C)o3)c(F)cc21 (stereo partly drawn) was tested on primary human T-cells, and its EC50 came to 5530

Here Cc1nc(-c2nnc(-c3cc4c(cc3F)S(=O)(=O)C[C@H](N)C(=O)N4Cc3ccc(Cl)cc3)o2)no1 was tested on primary human T-cells, and its EC50 came to 1500

###

tested on: primary human T-cells; assay: Proliferation assay after 5 days (CellTiter-Glo, CD3 stimulation; PBS counter screen); type: cell-based; conditions: Homo sapiens, T-cell, 120 h, primary human T-cells, CD3 stimulation, CellTiter-Glo after 5 days; EC50 of fitted sigmoidal curve; read-out: Tcell Proliferation CD3 EC50
READOUT KIND: pEC50
The scale used: pEC50 is minus the common logarithm of the concentration in molar units.

Recorded pEC50, per entry:
1. CC(C)(C)c1cn(-c2cc3c(cc2F)S(=O)(=O)C[C@H](N)C(=O)N3Cc2ccc(Cl)cc2)nn1 : 5.67
2. N[C@H]1CS(=O)(=O)c2cc(F)c(-n3cc(Cc4ccc(Cl)cc4)nn3)cc2N(Cc2ccc(Cl)cc2)C1=O : 5.98
3. N[C@H]1CS(=O)(=O)c2cc(F)c(-c3noc(C(F)(F)C(F)(F)F)n3)cc2N(Cc2ccc(Cl)cc2)C1=O : 6.04

Please turn your attention to the following entry.
Per the record, CC(C)(CCCN)c1nnc(-c2cc3c(cc2F)S(=O)(=O)C[C@H](N)C(=O)N3Cc2ccc(Cl)cc2)o1 has pEC50 of 5.59

###

// endpoint pEC50 / system primary human T-cells
The scale used: pEC50 is minus the common logarithm of the concentration in molar units.

Here CC(C)OCc1nnc(-c2cc3c(cc2F)S(=O)(=O)C[C@H](N)C(=O)N3Cc2ccc(Cl)cc2)o1 [Example 89] was tested on primary human T-cells, and its pEC50 came to 6.93

Here N[C@H]1CS(=O)(=O)c2cc(F)c(-c3noc(N4CCOC(F)(F)C4)n3)cc2N(Cc2ccc(Cl)cc2)C1=O [Example 204] was tested on primary human T-cells, and its pEC50 came to 7.11

Here CC(C)(CN1CCC(F)(F)CC1)c1nnc(-c2cc3c(cc2F)S(=O)(=O)C[C@H](N)C(=O)N3Cc2ccc(Cl)cc2)o1 [Example 142] was tested on primary human T-cells, and its pEC50 came to 6.65

Here N[C@H]1CS(=O)(=O)c2cc(F)c(-c3nnc(NC4CC4)o3)cc2N(Cc2ccc(Cl)cc2)C1=O [Example 481] was tested on primary human T-cells, and its pEC50 came to 5.73

Here CC(C)(C)c1nnc(-c2cc3c(cc2F)S(=O)(=O)C[C@H](N)C(=O)N3Cc2cnn(CC3CC3)c2)o1 [Example 255] was tested on primary human T-cells, and its pEC50 came to 6.07

The measurements presented in this section are drawn from patent US20240368150A1.
